Ref: PubChem BioAssay (EPA / NIEHS)

study.target: Cellular tumor antigen p53 (Homo sapiens)
run.description: TOX21_p53_BLA_p3_ratio: Tox21 HCT-116 p53 Agonism Beta-lactamase Assay, Ratio, Phase 3 (AID 2283596)
Inconclusive results are not listed. The source made the active and inactive calls. How the source made its calls: active means hit-call score of the fitted dose curve at least 0.9, where 1 is the maximum; inconclusive means response in the unintended direction; inactive means score below 0.9.
Reply using exactly one outcome from active, inactive

Exercise: Assay result, entry `O=c1ccc2ccccc2o1` — outcome?
Solution: inactive

Exercise: Assay result, entry `CCCCOC(=O)CC(CC(=O)OCCCC)(OC(C)=O)C(=O)OCCCC` — outcome?
Solution: inactive

Exercise: Assay result, entry `Cc1cc(F)ccc1-c1cc(N2CC[C@@H](O)[C@H]2CO)ncc1N(C)C(=O)C(C)(C)c1cc(C(F)(F)F)cc(C(F)(F)F)c1` — outcome?
Solution: active

Exercise: Assay result, entry `CCCCCCCCCC(=O)O` — outcome?
Solution: inactive

Exercise: Assay result, entry `O=c1c(-c2ccc(O)cc2)coc2cc(O)cc(O)c12` — outcome?
Solution: inactive

Exercise: Assay result, entry `CCN(Cc1cccc(S(=O)(=O)O)c1)c1ccc(C(=C2C=CC(=[N+](CC)Cc3cccc(S(=O)(=O)O)c3)C=C2)c2ccccc2S(=O)(=O)[O-])cc1` — outcome?
Solution: inactive

Exercise: Assay result, entry `O=C=NCCCCCCN=C=O` — outcome?
Solution: inactive

Exercise: Assay result, entry `O=C(O)c1ccccc1C(=O)OCc1ccccc1` — outcome?
Solution: inactive

Exercise: Assay result, entry `Cc1ncc(CO)c(CO)c1O` — outcome?
Solution: inactive

Exercise: Assay result, entry `CCCCCc1ccc(N)cc1` — outcome?
Solution: inactive

Exercise: Assay result, entry `CC[C@@H]1C[C@H](N(Cc2cc(C(F)(F)F)cc(C(F)(F)F)c2)C(C)=O)c2cc(C(F)(F)F)ccc2N1C(=O)OC(C)C` — outcome?
Solution: inactive

Exercise: Assay result, entry `CCCCOC(=O)c1ccc(O)cc1` — outcome?
Solution: inactive

Exercise: Assay result, entry `Cc1cc2c(cc1C(F)(F)F)N(C(=O)Nc1ccc(Oc3cccnc3C)nc1)CC2` — outcome?
Solution: inactive

Exercise: Assay result, entry `CC1=CC(=O)/C(=C(/C)O)C(=O)O1` — outcome?
Solution: inactive

Exercise: Assay result, entry `O=c1[nH]sc2ccccc12` — outcome?
Solution: inactive

Exercise: Assay result, entry `Cc1cccc2ccccc12` — outcome?
Solution: inactive

Exercise: Assay result, entry `CC[C@H](NC(=O)c1cc(F)ccc1NS(=O)(=O)c1cccc2cccnc12)c1ccccc1` — outcome?
Solution: inactive

Exercise: Assay result, entry `CC1(C)NC(=O)N(c2ccc([N+](=O)[O-])c(C(F)(F)F)c2)C1=O` — outcome?
Solution: inactive

Exercise: Assay result, entry `c1ccc2ccccc2c1` — outcome?
Solution: inactive

Exercise: Assay result, entry `CO[C@H]1/C=C/O[C@@]2(C)Oc3c(C)c(O)c4c(O)c(c(/C=N/N5CCN(C)CC5)c(O)c4c3C2=O)NC(=O)/C(C)=C\C=C\[C@H](C)[C@H](O)[C@@H](C)[C@@H](O)[C@@H](C)[C@H](OC(C)=O)[C@@H]1C` — outcome?
Solution: inactive

Exercise: Assay result, entry CN1C(=O)N(c2ccccc2Br)Cc2cnc(Nc3ccc4c(c3)OCC(CO)O4)nc21 (centres undefined) — outcome?
Solution: active

Exercise: Assay result, entry `Clc1cc(Cl)c2c(c1)N=C1CCCCCN1C2` — outcome?
Solution: inactive

Exercise: Assay result, entry `OCCO` — outcome?
Solution: inactive

Exercise: Assay result, entry `CCCCCCCCCCCCO` — outcome?
Solution: inactive

----------
study.target: rat Adrenergic, Alpha 1A Receptor (Adra1A), Adra1a (gene 29412) (UniProt P43140)
Sequence (P43140 whole entry, looked up): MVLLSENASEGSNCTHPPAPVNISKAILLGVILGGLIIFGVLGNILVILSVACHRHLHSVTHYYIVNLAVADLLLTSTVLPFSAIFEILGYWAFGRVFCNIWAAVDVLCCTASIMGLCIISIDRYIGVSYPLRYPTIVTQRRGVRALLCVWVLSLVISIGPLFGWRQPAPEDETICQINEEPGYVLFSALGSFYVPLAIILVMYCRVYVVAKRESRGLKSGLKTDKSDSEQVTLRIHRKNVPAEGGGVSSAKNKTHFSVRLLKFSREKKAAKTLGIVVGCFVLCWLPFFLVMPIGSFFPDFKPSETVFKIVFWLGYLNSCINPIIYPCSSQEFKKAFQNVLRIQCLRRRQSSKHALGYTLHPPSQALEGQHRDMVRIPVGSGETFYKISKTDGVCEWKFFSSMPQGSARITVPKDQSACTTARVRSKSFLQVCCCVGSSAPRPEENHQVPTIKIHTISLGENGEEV
run.description: NVS_GPCR_rAdra1A: NovaScreen (NVS) G Protein-Coupled Receptor Assay for rat Adrenergic, Alpha 1A Receptor (Adra1A) (AID 2283296)
Results filed as inconclusive are left out. Active and inactive are the calls of the source. How the source made its calls: active means hit-call score of the fitted dose curve at least 0.9, where 1 is the maximum; inconclusive means response in the unintended direction; inactive means score below 0.9.
Reply using exactly one outcome from active, inactive

Exercise: Assay result, entry `c1ccc(C[n+]2cccc3ccccc32)cc1` — outcome?
Solution: active

Exercise: Assay result, entry `COc1ccc2cc(S(=O)(=O)N[C@H](CC(=O)N[C@H](Cc3ccc(CN4[C@H](C)CCC[C@@H]4C)cc3)C(=O)N(C)C(C)C)c3ccc4c(c3)OCO4)ccc2c1` — outcome?
Solution: inactive

Exercise: Assay result, entry `NCc1cccc(C2CCN(C(=O)c3ccc(C#Cc4ccccc4F)o3)CC2)c1` — outcome?
Solution: inactive

Exercise: Assay result, entry `CN(C)c1ccc(C(=C2C=CC(=[N+](C)C)C=C2)c2ccc(N(C)C)cc2)cc1` — outcome?
Solution: active

Exercise: Assay result, entry `O=C1c2ccccc2C(=O)N1CCc1noc(-c2ccc(CN3CCCCCC3)s2)n1` — outcome?
Solution: active

Exercise: Assay result, entry `CN(C)C(=O)C1(N2CCCCC2)CCN(CC[C@@]2(c3ccc(Cl)c(Cl)c3)CN(C(=O)c3ccccc3)CCO2)CC1` — outcome?
Solution: active

----------
Read-out: Human Leukocyte Antigen - DR isotype (HLADR), HLA-DRA (gene 3122)
run.description: BSK_CASM3C_HLADR: BioMAP Diversity Plus: CASM3C Assay for Human Leukocyte Antigen - DR isotype (HLADR) Biomarker Activity (AID 2283043);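 further: cell-surface HLA-DR protein level quantified by ELISA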
condition.info: primary human coronary artery smooth muscle cells; actives raise or lower the signal
Activity calls are given as the source filed them. How the source made its calls: active means hit-call score of the fitted dose curve at least 0.9, where 1 is the maximum; inactive means score below 0.9.
Reply using exactly one outcome from active, inactive

Exercise: Assay result, entry `NCc1cccc(C2CCN(C(=O)c3ccc(C#Cc4ccccc4F)o3)CC2)c1` — outcome?
Solution: active

Exercise: Assay result, entry `CCN(CC)C(=O)c1cc(S(=O)(=O)Cc2ccccc2)c(N2CCC(c3ccccc3)CC2)cc1N(CC)CCN(C)C` — outcome?
Solution: active

Exercise: Assay result, entry `O=C1c2ccccc2C(=O)N1CCc1noc(-c2ccc(CN3CCCCCC3)s2)n1` — outcome?
Solution: inactive

Exercise: Assay result, entry `CN(C[C@@H](CC[N+]12CCC(C3CCCCC3)(CC1)CC2)c1ccc(Cl)c(Cl)c1)C(=O)c1cc(C(F)(F)F)cc(C(F)(F)F)c1` — outcome?
Solution: active

Exercise: Assay result, entry `OCCO` — outcome?
Solution: inactive

Exercise: Assay result, entry `CO[C@H]1/C=C/O[C@@]2(C)Oc3c(C)c(O)c4c(O)c(c(/C=N/N5CCN(C)CC5)c(O)c4c3C2=O)NC(=O)/C(C)=C\C=C\[C@H](C)[C@H](O)[C@@H](C)[C@@H](O)[C@@H](C)[C@H](OC(C)=O)[C@@H]1C` — outcome?
Solution: inactive

Exercise: Assay result, entry `COc1cc(C(=O)NC2CCN(C)CC2)ccc1Nc1ncc2c(n1)N(C1CCCC1)CC(F)(F)C(=O)N2C` — outcome?
Solution: active

Exercise: Assay result, entry `O=C(OCCCCCCOC(=O)c1ccccc1)c1ccccc1` — outcome?
Solution: inactive

----------
study.target: Glucocorticoid receptor (Homo sapiens) (UniProt P04150)
Sequence (P04150 whole entry, looked up): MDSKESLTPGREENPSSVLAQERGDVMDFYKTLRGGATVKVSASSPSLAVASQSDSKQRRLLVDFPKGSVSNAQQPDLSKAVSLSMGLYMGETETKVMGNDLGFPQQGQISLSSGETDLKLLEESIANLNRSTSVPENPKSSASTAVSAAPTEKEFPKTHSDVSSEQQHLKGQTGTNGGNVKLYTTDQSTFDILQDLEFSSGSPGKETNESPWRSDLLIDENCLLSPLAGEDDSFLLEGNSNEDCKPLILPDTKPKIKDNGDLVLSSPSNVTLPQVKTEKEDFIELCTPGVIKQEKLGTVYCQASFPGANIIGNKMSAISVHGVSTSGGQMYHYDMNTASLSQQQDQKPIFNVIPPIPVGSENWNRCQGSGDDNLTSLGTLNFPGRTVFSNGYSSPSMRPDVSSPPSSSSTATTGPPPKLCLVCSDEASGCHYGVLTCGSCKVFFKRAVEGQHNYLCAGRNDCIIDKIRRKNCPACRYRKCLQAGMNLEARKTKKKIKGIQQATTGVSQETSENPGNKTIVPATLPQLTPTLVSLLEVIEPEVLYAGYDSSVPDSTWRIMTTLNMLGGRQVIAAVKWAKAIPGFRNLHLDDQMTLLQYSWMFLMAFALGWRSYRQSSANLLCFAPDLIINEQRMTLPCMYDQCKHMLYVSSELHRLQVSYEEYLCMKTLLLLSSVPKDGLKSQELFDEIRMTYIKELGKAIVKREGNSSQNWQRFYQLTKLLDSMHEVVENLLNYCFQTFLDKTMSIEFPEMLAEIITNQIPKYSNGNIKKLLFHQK
run.description: NVS_NR_hGR: NovaScreen (NVS) Nuclear Receptor Binding Assay for human Glucocorticoid Receptor (GR) (AID 2283363)
Method: NVS_NR_hGR is a biochemical, single-readout assay that uses extracted gene-proteins in a cell-free assay. Measurements were taken 16 hours after chemical dosing in a 96-well plate.NVS_NR_hGR is one of one assay component(s) measured or calculated from the NVS_NR_hGR assay. […] This assay endpoint, NVS_NR_hGR, was analyzed in the positive analysis fitting direction relative to DMSO as the negative control and baseline of activity. […]
Records with an inconclusive call do not appear. Activity calls are given as the source filed them. Rule for the calls: active = hit-call score of the fitted dose curve at least 0.9, where 1 is the maximum; inconclusive = response in the unintended direction; inactive = score below 0.9.
Reply using exactly one outcome from t (active), f (inactive)

Exercise: Assay result, entry `O=C(O)c1ccccc1-n1cc(C(=O)O)c(=O)c2cc(Nc3c(F)cc(F)cc3Cl)c(Cl)cc21` — outcome?
Solution: t

Exercise: Assay result, entry `CCOC(=O)O[C@H](C)OC(=O)c1ccc2c(c1)cc(C(=O)NC1CCN(C(C)C)CC1)n2Cc1cc(-c2ccc(Cl)s2)on1` — outcome?
Solution: t

Exercise: Assay result, entry `CCCCCCCCOC(=O)c1cc(O)c(O)c(O)c1` — outcome?
Solution: t

Exercise: Assay result, entry `COc1cc(C(=O)NC2CCN(C)CC2)ccc1Nc1ncc2c(n1)N(C1CCCC1)CC(F)(F)C(=O)N2C` — outcome?
Solution: t

Exercise: Assay result, entry CN1C(=O)N(c2ccccc2Br)Cc2cnc(Nc3ccc4c(c3)OCC(CO)O4)nc21 (stereo unspecified) — outcome?
Solution: f

Exercise: Assay result, entry `CN(C)C(=O)C1(N2CCCCC2)CCN(CC[C@@]2(c3ccc(Cl)c(Cl)c3)CN(C(=O)c3ccccc3)CCO2)CC1` — outcome?
Solution: t

Exercise: Assay result, entry `CN(C)c1ccc(C(=C2C=CC(=[N+](C)C)C=C2)c2ccc(N(C)C)cc2)cc1` — outcome?
Solution: t

Exercise: Assay result, entry `CCN(CC)C(=O)c1cc(S(=O)(=O)Cc2ccccc2)c(N2CCC(c3ccccc3)CC2)cc1N(CC)CCN(C)C` — outcome?
Solution: t

Exercise: Assay result, entry `NCc1cccc(C2CCN(C(=O)c3ccc(C#Cc4ccccc4F)o3)CC2)c1` — outcome?
Solution: t

Exercise: Assay result, entry `CC(C)(c1cc(Br)c(O)c(Br)c1)c1cc(Br)c(O)c(Br)c1` — outcome?
Solution: t

Exercise: Assay result, entry `Cc1cc(F)ccc1-c1cc(N2CC[C@@H](O)[C@H]2CO)ncc1N(C)C(=O)C(C)(C)c1cc(C(F)(F)F)cc(C(F)(F)F)c1` — outcome?
Solution: t
